molecular target: EGFR (A767_dupASV) expressing Ba/F3 stable cell line (Homo sapiens, UniProt P00533, DUP767-769, cells depend on it); assay: Cellular proliferation (Alamar Blue) assay, EGFR (A767_dupASV) Ba/F3; assay type: cell-based; conditions: 72 hr, read-out: A767 IC50
Sequence (P00533 with tags, fused parts or gaps DUP767-769): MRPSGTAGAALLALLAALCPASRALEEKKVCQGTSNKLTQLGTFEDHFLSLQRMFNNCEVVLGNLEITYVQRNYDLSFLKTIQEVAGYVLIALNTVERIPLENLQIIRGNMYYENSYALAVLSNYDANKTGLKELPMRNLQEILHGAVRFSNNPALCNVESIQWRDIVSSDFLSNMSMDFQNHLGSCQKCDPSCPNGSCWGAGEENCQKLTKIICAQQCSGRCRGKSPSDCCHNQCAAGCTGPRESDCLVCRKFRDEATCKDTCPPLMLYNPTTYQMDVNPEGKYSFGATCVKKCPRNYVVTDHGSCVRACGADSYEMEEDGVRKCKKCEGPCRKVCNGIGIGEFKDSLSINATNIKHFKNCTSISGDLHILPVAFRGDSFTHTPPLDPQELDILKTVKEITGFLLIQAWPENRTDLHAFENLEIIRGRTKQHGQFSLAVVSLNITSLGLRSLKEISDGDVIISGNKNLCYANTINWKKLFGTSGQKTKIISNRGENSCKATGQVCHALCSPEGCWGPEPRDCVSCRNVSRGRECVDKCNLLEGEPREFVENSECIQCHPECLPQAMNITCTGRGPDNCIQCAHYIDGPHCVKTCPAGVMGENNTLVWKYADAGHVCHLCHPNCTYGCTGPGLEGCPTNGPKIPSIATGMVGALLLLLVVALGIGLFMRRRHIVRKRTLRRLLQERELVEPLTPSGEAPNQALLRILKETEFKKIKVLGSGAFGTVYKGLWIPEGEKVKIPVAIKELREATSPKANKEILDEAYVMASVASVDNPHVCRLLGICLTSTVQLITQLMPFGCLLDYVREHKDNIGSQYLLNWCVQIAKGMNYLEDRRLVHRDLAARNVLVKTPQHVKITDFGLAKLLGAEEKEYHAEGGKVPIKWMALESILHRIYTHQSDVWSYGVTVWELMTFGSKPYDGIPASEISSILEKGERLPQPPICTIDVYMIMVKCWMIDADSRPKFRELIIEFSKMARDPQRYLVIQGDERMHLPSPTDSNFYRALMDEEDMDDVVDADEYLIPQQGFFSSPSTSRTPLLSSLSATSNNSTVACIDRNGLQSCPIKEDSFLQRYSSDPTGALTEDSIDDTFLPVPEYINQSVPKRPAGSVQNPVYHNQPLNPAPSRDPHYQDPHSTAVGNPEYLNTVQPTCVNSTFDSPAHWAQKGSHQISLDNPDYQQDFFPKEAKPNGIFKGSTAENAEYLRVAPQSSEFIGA
outcome-measure: GI50 (nM)

C=CC(=O)Nc1ccc(F)c(Nc2nc(Nc3cnn(C)c3)ncc2-c2ccc(F)c(F)c2)c1 [Compound 5] ... 39
C=CC(=O)Nc1ccc(F)c(Nc2nc(Nc3cnn(C)c3)ncc2-c2cc(F)c(C(F)(F)F)c(OC)c2)c1 [Compound 133] ... 322
C=CC(=O)Nc1cccc(Nc2nc(Nc3cnn(C)c3)ncc2-c2cc(F)c(Br)c(F)c2)c1 [Compound 152] ... 34

I. CN(C)C/C=C/C(=O)Nc1ccc(F)c(Nc2nc(Nc3cnn(C)c3)ncc2-c2cc(F)cc(F)c2)c1 [Compound 161]
II. CN(C)C/C=C/C(=O)Nc1ccc(F)c(Nc2nc(Nc3cnn(C)c3)ncc2-c2ccc3c(c2)OCC3)c1 [Compound 178]
III. C=CC(=O)Nc1cc(F)cc(Nc2nc(Nc3cnn(C)c3)ncc2-c2cc(F)c(C(F)(F)F)c(F)c2)c1 [Compound 164]
IV. C=CC(=O)Nc1ccc(F)c(Nc2nc(Nc3cnn(C)c3)ncc2-c2cc(Cl)ccc2OC)c1 [Compound 23]
Arrange the 4 entries by GI50 so the values rise. Quick reminder: the answer is the labels in the order asked.
III, I, II, IV
(III: 18 nM, I: 140 nM, II: 722 nM, IV: 2760 nM)

1. C=CC(=O)Nc1ccc(F)c(Nc2nc(Nc3cnn(C)c3)ncc2-c2ccc(CN(C)C)c(F)c2)c1 [Compound 60]
2. CN(C)C/C=C/C(=O)Nc1ccc(F)c(Nc2nc(Nc3cnn(C)c3)ncc2-c2ccc(Br)c(F)c2)c1 [Compound 105]
Please compare: 1 and 2 . Report which one has the smaller GI50 value. Your choice should be expressed through its label.
1
